Values from patent US20260055126A1

Target: recombinant TEAD3 protein central pocket (Homo sapiens (Human), UniProt Q99594)
Sequence (Q99594 whole entry): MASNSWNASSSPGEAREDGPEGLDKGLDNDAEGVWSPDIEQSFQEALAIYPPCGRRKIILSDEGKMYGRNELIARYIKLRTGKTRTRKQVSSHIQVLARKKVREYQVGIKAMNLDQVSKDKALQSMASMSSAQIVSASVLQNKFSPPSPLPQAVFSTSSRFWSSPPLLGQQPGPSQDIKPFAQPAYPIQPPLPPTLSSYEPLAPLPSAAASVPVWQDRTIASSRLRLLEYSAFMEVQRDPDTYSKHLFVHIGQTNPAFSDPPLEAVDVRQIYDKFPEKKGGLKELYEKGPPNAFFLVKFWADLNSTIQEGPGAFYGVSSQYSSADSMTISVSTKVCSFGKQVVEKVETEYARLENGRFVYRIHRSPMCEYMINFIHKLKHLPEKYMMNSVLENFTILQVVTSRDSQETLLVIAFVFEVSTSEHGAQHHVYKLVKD
Measurement Description: Competitive thiol binding assay (CPM assay), TEAD3
Measurement Conditions: 150 nM recombinant TEAD protein, 150 nM CPM
Listing of recorded pIC50 by entry.
Value format note: pIC50 is -log10 of concentration (mol/L); just state the number.

# Molecule, Target, Observed Measurement
records = [
    ("CNS(=O)(=O)c1ccc(Nc2ccc(C(F)(F)F)cc2)c(-c2cn(C)cn2)c1 [VT103, reference compound]", "recombinant TEAD3 protein central pocket (Homo sapiens (Human), UniProt Q99594)", 5.57),
]

Item CCP(=O)(CC)c1ccc(Nc2ccc(C(F)(F)F)cc2)c(-c2cn(C)cn2)c1 has what recorded pIC50? 6.15
